Test: detection-format interference in TR-FRET ratio – biochemical, artefact control for PPARgamma SRC-2 agonist project, primary screen (AID 1049)
Settings: TR-FRET artefact counter-screen; at 8 µM; active compounds read high
Hit rate of the full screen: of about 200,000 compounds, about 780 (0.39%) were called active. Shown is part of a subset that was picked to be rich in actives.
ENDPOINT_LABEL: TR-FRET ratio

Some solved entries appear below for comparison.
State the recorded TR-FRET ratio for this entry: `Cc1nc2ccccc2n1CC(=O)N/N=C/c1cccnc1`
1640 (inactive)

State the recorded TR-FRET ratio for this entry: Cc1ccc(S(=O)(=O)NC(C(=O)N2CCOCCOCCOCCOCC2)c2ccccc2)cc1 (configuration not stated)
1360 (inactive)

State the recorded TR-FRET ratio for this entry: Brc1ccc(C2CC(c3ccccc3)=Nc3ccccc3N2)cc1 (configuration not stated)
1550 (inactive)

State the recorded TR-FRET ratio for this entry: `CNc1nccc(-c2ccc(Cl)cc2)c1C#N`
1580 (inactive)

State the recorded TR-FRET ratio for this entry: CCCOc1ccc(NC(=O)C2OC3OC(C)(C)OC3C3OC(C)(C)OC23)cc1 (configuration not stated)
1480 (inactive)

Next:
State the recorded TR-FRET ratio for this entry: `COC(=O)[C@@H]1CC[C@H](C)[C@@H](c2ccc(C)cc2)N1C(=O)c1ccc(/C=N/O[C@H](C)c2cn([C@@H]3COC[C@H]3O)nn2)cc1`
1550 (inactive)

State the recorded TR-FRET ratio for this entry: `N#Cc1c2c(c(-c3ccccc3)[nH]c1=O)CCCC2`
1620 (inactive)

State the recorded TR-FRET ratio for this entry: `Cc1cc([N+](=O)[O-])nn1CCCC(=O)Nc1cccnc1Cl`
1580 (inactive)

State the recorded TR-FRET ratio for this entry: `COc1cccc(-c2ccc(SCC(=O)N3CCN(c4ccccc4)CC3)nn2)c1`
1690 (inactive)
